src = the supplement of paper PMC10567573

B1: SOAT1 (parent)
chain: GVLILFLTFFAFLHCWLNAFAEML

- Variants of: B1
- procedure details: protein stability index of a GFP-peptide fusion (GPS, HEK-293T) (PSI 1-6); higher = more stable;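 note: lentivirally expressed fusions sorted by FACS into six bins by GFP to DsRed ratio, PSI derived from sequencing read proportions per bin multiplied by bin number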
- experimental conditions: c terminus: a fixed tail appended
metric name: protein stability index
The response must contain the number and no unit.

Examples with answers:
sequence variant	protein stability index
N18P	3.85
A11V	1.88
C15E	2.28
A19C	2.73
H14C	2.17
F20K	2.71
T8V	2.33
G1N	3.26

Report measured protein stability index; entry is `I4M`
3.03

Return value of protein stability index for input `L17N` , no commentary.
2.84

Could you please provide reported protein stability index for `T8N` ? Thanks!
2.38

Output measured protein stability index for this item: `E22I`
2.95

Give the reported value of protein stability index for this record: `L24M`
2.72

Annotate the variant `F12D` with its measured protein stability index.
2.27

Return protein stability index for the following variant: `N18Y`
2.61

Give protein stability index for the following variant: `C15W`
3.12

Identify protein stability index associated with the variant `L17H`
1.87

Report measured protein stability index; entry is `T8I`
2.42

Determine from records and report protein stability index for `F9T`
2.68

Identify measured protein stability index associated with `A11T`
3.07

Identify measured protein stability index corresponding to `N18I`
2.85

Provide one value: measured protein stability index of `L17S`
1.44
